system tested: Nuclear receptor subfamily 1 group I member 3 (Homo sapiens) (UniProt Q14994)
Sequence (Q14994 whole entry, looked up): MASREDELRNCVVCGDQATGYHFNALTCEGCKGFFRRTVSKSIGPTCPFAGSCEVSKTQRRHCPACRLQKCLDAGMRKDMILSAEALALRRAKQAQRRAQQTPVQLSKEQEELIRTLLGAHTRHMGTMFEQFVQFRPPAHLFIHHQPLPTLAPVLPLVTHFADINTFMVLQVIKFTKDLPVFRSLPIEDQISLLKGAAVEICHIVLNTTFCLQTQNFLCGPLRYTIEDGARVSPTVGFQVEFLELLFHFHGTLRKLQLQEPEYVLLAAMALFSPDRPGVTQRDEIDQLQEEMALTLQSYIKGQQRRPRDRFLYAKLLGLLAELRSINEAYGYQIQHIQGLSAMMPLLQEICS
experiment: qHTS assay to identify small molecule antagonists of the constitutive androstane receptor (CAR) signaling pathway (AID 1224838);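 further: HepG2 cells stably expressing hCAR with CYP2B6 luciferase reporter stimulated by CITCO; nearly all actives have a fitted effect of over 40% in size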
condition context: HepG2-CYP2B6-hCAR luciferase, CITCO-stimulated, 24 h; series mostly up to 92.4 µM
Inconclusive results are not listed. The source made the active and inactive calls. The call rests on the fitted dose curve; in most records, active means well fitted inhibition curve with a large enough effect in the repeat runs; inconclusive means weak or mixed curves, or effect the other way; inactive means no such curve, though single readings can be large or run the other way.
measurement kind: activity, negative = inhibition

Solved entries:
CC(=O)c1ccc(C)cc1: inactive
CC(C)(C)N(CCO)CCO: inactive
C=C(C)C(=O)OCCC(C)OC(=O)C(=C)C (stereo not given): inactive
C1=C\CC/C=C\CC/C=C\CC/1: inactive

[ask] Reported activity, negative = inhibition, molecule `CCCCCCCCC=O` : ____
[reply] inactive

[ask] Look up activity, negative = inhibition: `CC(C)(C)C(=O)/C=C/c1ccc(Cl)cc1`
[reply] inactive

[ask] // lookup activity, negative = inhibition for C#CC(O)CCCCC (stereo not given)
[reply] inactive

[ask] Consider the molecule shown here: `CC(C)COC(=O)c1ccccc1O` What is its recorded activity, negative = inhibition?
[reply] inactive

[ask] Quick one: activity, negative = inhibition for `Cc1ccc(N)cc1[N+](=O)[O-]` ?
[reply] inactive

[ask] Which activity, negative = inhibition is listed for `CCCCc1ccc(N)cc1` ?
[reply] inactive

[ask] Requested field: activity, negative = inhibition. Item: `c1ccc(CCCc2ccccn2)cc1`
[reply] inactive

====

experiment: qHTS assay to identify aromatase inhibitors - cell viability counter screen (AID 743084);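 further: cells stimulated with testosterone during compound exposure; nearly all actives have a fitted effect of over 55% in size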
condition context: MCF-7 aro ERE viability, CellTiter-Fluor, 24 h; series mostly up to 70.3 µM
Records with an inconclusive call do not appear. The source made the active and inactive calls. Calls come from the whole dose curve; as a rule, active = well fitted cell-killing curve with a large enough effect in the repeat runs; inconclusive = weak or mixed curves, or effect the other way; inactive = no such curve, though single readings can be large or run the other way.
measurement kind: activity change, negative = cytotoxicity

Examples with their reported activity change, negative = cytotoxicity follow.
Cc1ccccc1Br: inactive
NC(=O)Nc1nc2ccccc2[nH]1: inactive
C[C@H](O)C(=O)Nc1c(I)c(C(=O)NC(CO)CO)c(I)c(C(=O)NC(CO)CO)c1I: inactive
CC(C)=CCC/C(C)=C/C(=O)O: inactive
CCCC=O: inactive
CCn1cc(C(=O)O)c(=O)c2cc(F)c(N3CCN(C)CC3)cc21: inactive

Next item in the queue.
[ask] Using the record for `CCCc1ccc(N)cc1` , report its activity change, negative = cytotoxicity.
[reply] inactive

====

experiment: A CellTox Green Cytotoxicity Assay to monitor cytotoxicity in HepG2 cells - 32 hour (AID 1224883); further: nearly all actives have a fitted effect of over 50% in size
condition context: CellTox Green fluorescence; series mostly up to 76.8 µM
Results filed as inconclusive are left out. The source made the active and inactive calls. The call rests on the fitted dose curve; in most records, active means well fitted activation curve with a large enough effect in the repeat runs; inconclusive means weak or mixed curves; inactive means flat fitted curve, though single readings scatter.
Respond using exactly one of the listed classes: yes (1) for active, no (0) for inactive

[ask] State the result this test recorded for `C/C=C1\C(=O)C[C@H]2[C@@H]3CCC4=CC(=O)CC[C@]4(C)[C@H]3CC[C@]12C` .
[reply] no (0)

[ask] Could you kindly confirm the outcome this assay logged for `C[C@H]1O[C@@H](n2cc(F)c(=O)[nH]c2=O)[C@H](O)[C@@H]1O` ?
[reply] no (0)

[ask] In this assay, the call recorded for `NC(=O)c1c(Cl)cccc1Cl` was what?
[reply] no (0)

[ask] In this assay, the call recorded for Nc1ccn(C2CO[C@H](CO)O2)c(=O)n1 (stereo partly drawn) was what?
[reply] yes (1)

[ask] Which outcome was entered for the molecule `NC(=O)c1ncn([C@@H]2O[C@H](CO)[C@@H](O)[C@H]2O)c1N` in this test?
[reply] no (0)

[ask] Which outcome was assigned to CN(C)CCOC(c1ccc(Cl)cc1)c1ccccn1 (stereo not drawn) in this test?
[reply] no (0)

[ask] Kindly provide the recorded test outcome for the following molecule: `OCc1ccccn1`
[reply] no (0)

[ask] Fill in: this test's call for `CCCCC=O` is ___
[reply] no (0)

[ask] # outcome recorded in this test, key = `CCc1cc(S(=O)(=O)O)c2cc(C(C)C)cccc1-2`
[reply] no (0)

[ask] How was `COc1cc(C)cc(O)c1` classified in this test?
[reply] no (0)

[ask] Entry CCC(C)OC(=O)N1CCCCC1CCO (stereo not drawn) : call = ?
[reply] no (0)

[ask] Per the assay record, what outcome was assigned to `Nc1ccc2cc(S(=O)(=O)O)ccc2c1` ?
[reply] no (0)

[ask] Hi team, can someone confirm the assay call for C#CC(O)CCCCC (stereo not drawn) ?
[reply] no (0)
